tested on: HT29; assay: Growth inhibition test (MTT), cytotoxic action on tumour cell lines; type: cell-based, human; details: human, 6 day
measured_property: IC50 (nM)
Return type: number; implicit unit nM.

Request: Give recorded IC50 with HT29 for the following compound: CCCNC(=O)Nc1cccc(S(=O)(=O)Nc2cccc(C(CC(=O)O)NC(=O)Nc3ccc(NC(=S)N4CCC[C@H]4C(=O)N[C@@H](CC(C)C)C(=O)NCC(=O)N[C@@H](CC(C)C)C(=O)N[C@@H](CCC(=O)O)C(=O)N[C@H](C(=O)O[C@]4(CC)C(=O)OCc5c4cc4n(c5=O)Cc5cc6ccccc6nc5-4)C(C)C)cc3)c2)c1 (stereo partly shown) [Example 36]
Result: 100

* * *

test system: B16F10; test: Growth inhibition test (MTT), cytotoxic action on tumour cell lines; assay type: cell-based, mouse; conditions: B16F10; MTT after day 6; read-out: IC50 values of the cytotoxic action on tumour cell lines, B16F10
*1 amine or outer side, *2 acyl side, *3 side chain or, on linkers, in order; H or OH if unused. Where a SMILES comes first, the peptide text is derived from it. [ ]: non-standard residue; d: D form. The star is where a group is joined. ξ: configuration not given here. Camptothecin(20R,20-O) = CC[C@]1(O*)C(=O)OCc2c1cc1n(c2=O)Cc2cc3ccccc3nc2-1; X2 = CCCNC(=O)Nc1cccc(S(=O)(=O)Nc2cccc(C(CC(=O)O)NC(=O)Nc3ccc(N*)cc3)c2)c1; X1 = CCCNC(=O)Nc1cccc(S(=O)(=O)Nc2cccc(C(CC(=O)O)N*)c2)c1; NH(1,4-C6H4)NHCS = S=C(Nc1ccc(N[*:1])cc1)[*:2]; ξH = NC(Cc1c[nH]cn1)C(=O)O; CO = O=C([*:1])[*:2]; GABA = NCCCC(=O)O
compounds and their reported pIC50
The value called pIC50 is obtained by taking minus log10 of the concentration in mol/L.

// below: answered compounds
compound	pIC50
CCCNC(=O)Nc1cccc(S(=O)(=O)Nc2cccc(C(CC(=O)O)NC(=O)Nc3ccc(NC(=O)N4CCC[C@@H]4C(=O)N[C@@H](CC(C)C)C(=O)NCC(=O)N[C@H](CC(C)C)C(=O)N[C@H](Cc4c[nH]cn4)C(=O)N[C@@H](C(=O)O[C@@]4(CC)C(=O)OCc5c4cc4n(c5=O)Cc5cc6ccccc6nc5-4)C(C)C)cc3)c2)c1 (stereo partly drawn) [Example 6] ({X2-CO}-[dP]LG[dL][dH][dV]-{Camptothecin(20R,20-O)})	6.82
CCCNC(=O)Nc1cccc(S(=O)(=O)Nc2cccc(C(CC(=O)O)NC(=O)Nc3ccc(NC(=O)N4CCC[C@@H]4C(=O)N[C@@H](CC(C)C)C(=O)NCC(=O)N[C@H](CC(C)C)C(=O)N[C@H](Cc4c[nH]c5ccccc45)C(=O)N[C@@H](C(=O)O[C@@]4(CC)C(=O)OCc5c4cc4n(c5=O)Cc5cc6ccccc6nc5-4)C(C)C)cc3)c2)c1 (stereo partly drawn) [Example 15] ({X2-CO}-[dP]LG[dL][dW][dV]-{Camptothecin(20R,20-O)})	5.10
CCCNC(=O)Nc1cccc(S(=O)(=O)Nc2cccc(C(CC(=O)O)NC(=O)Nc3ccc(NC(=S)N4CCC[C@@H]4C(=O)N[C@@H](CC(C)C)C(=O)NCC(=O)N[C@H](CC(C)C)C(=O)N[C@H](CSC)C(=O)N[C@@H](C(=O)O[C@@]4(CC)C(=O)OCc5c4cc4n(c5=O)Cc5cc6ccccc6nc5-4)C(C)C)cc3)c2)c1 (stereo partly drawn) [Example 13] ({X1-CO}-[NH(1,4-C6H4)NHCS][dP]LG[dL][dC](Me)[dV]-{Camptothecin(20R,20-O)})	6.40
CCCNC(=O)Nc1cccc(S(=O)(=O)Nc2cccc(C(CC(=O)O)NC(=O)Nc3ccc(NC(=S)N4CCC[C@H]4C(=O)N[C@@H](CC(C)C)C(=O)NCC(=O)N[C@@H](CC(C)C)C(=O)N4CCC[C@H]4C(=O)N[C@H](C(=O)O[C@]4(CC)C(=O)OCc5c4cc4n(c5=O)Cc5cc6ccccc6nc5-4)C(C)C)cc3)c2)c1 (stereo partly shown)	6.00
CCCNC(=O)Nc1cccc(S(=O)(=O)Nc2cccc(C(CC(=O)O)NC(=O)Nc3ccc(NC(=S)N4CCC[C@@H]4C(=O)N[C@@H](CC(C)C)C(=O)NCC(=O)N[C@H](CC(C)C)C(=O)N[C@H](CSC)C(=O)N[C@@H](C(=O)O[C@@]4(CC)C(=O)OCc5c4cc4n(c5=O)Cc5cc6ccccc6nc5-4)C(C)C)cc3)c2)c1 (stereo partly drawn) [Example 14] ({X1-CO}-[NH(1,4-C6H4)NHCS][dP]LG[dL][dC](Me)[dV]-{Camptothecin(20R,20-O)})	6.40

Request: Please look up its pIC50: CCCNC(=O)Nc1cccc(S(=O)(=O)Nc2cccc(C(CC(=O)O)NC(=O)Nc3ccc(NC(=S)N4CCC[C@@H]4C(=O)N[C@@H](CC(C)C)C(=O)NCC(=O)N[C@H](CCC)C(=O)N[C@H](CC(N)=O)C(=O)N[C@@H](C(=O)O[C@@]4(CC)C(=O)OCc5c4cc4n(c5=O)Cc5cc6ccccc6nc5-4)C(C)C)cc3)c2)c1 (single isomer, unassigned)
Result: 6.70

Request: Now the same for CCCNC(=O)Nc1cccc(S(=O)(=O)Nc2cccc(C(CC(=O)O)NC(=O)Nc3ccc(NC(=O)NCCCC(=O)N4CCC[C@@H]4C(=O)N[C@@H](CC(C)C)C(=O)NCC(=O)N[C@H](CC(C)C)C(=O)N[C@H](CC(N)=O)C(=O)N[C@@H](C(=O)O[C@@]4(CC)C(=O)OCc5c4cc4n(c5=O)Cc5cc6ccccc6nc5-4)C(C)C)cc3)c2)c1 (stereo partly drawn) [Example 18] ({X2-CO-GABA}-[dP]LG[dL][dN][dV]-{Camptothecin(20R,20-O)})
Result: 7.15

Request: Next compound up: CCCCNC(=O)Nc1cccc(S(=O)(=O)Nc2cccc(C(CC(=O)O)NC(=O)Nc3ccc(NC(=S)NCC(=O)N4CCC[C@@H]4C(=O)N[C@@H](CC(C)C)C(=O)NCC(=O)N[C@H](CC(C)C)C(=O)N[C@H](CC(N)=O)C(=O)N[C@@H](C(=O)O[C@@]4(CC)C(=O)OCc5c4cc4n(c5=O)Cc5cc6ccccc6nc5-4)C(C)C)cc3)c2)c1 (single isomer, unassigned)
Result: 7.05

Request: And what about the compound CCCNC(=O)Nc1cccc(S(=O)(=O)Nc2cccc(C(CC(=O)O)NC(=O)Nc3ccc(NC(=O)N4CCC[C@@H]4C(=O)N[C@@H](CC(C)C)C(=O)NCC(=O)N[C@H](CC(C)C)C(=O)N[C@H](CC(N)=O)C(=O)N[C@@H](C(=O)O[C@@]4(CC)C(=O)OCc5c4cc4n(c5=O)Cc5cc6ccccc6nc5-4)C(C)C)cc3)c2)c1 (stereo partly drawn) [Example 12] ({X2-CO}-[dP]LG[dL][dN][dV]-{Camptothecin(20R,20-O)}) ?
Result: 6.82

Request: # repeat for CCCNC(=O)Nc1cccc(S(=O)(=O)Nc2cccc(C(CC(=O)O)NC(=O)Nc3ccc(NC(=S)N4CCC[C@@H]4C(=O)NC(Cc4c[nH]cn4)C(=O)NCC(=O)N[C@H](CC(C)C)C(=O)N[C@H](CC(N)=O)C(=O)N[C@@H](C(=O)O[C@@]4(CC)C(=O)OCc5c4cc4n(c5=O)Cc5cc6ccccc6nc5-4)C(C)C)cc3)c2)c1 (stereo partly drawn) [Example 24] ({X1-CO}-[NH(1,4-C6H4)NHCS][dP][ξH]G[dL][dN][dV]-{Camptothecin(20R,20-O)})
Result: 6.05

* * *

Reported pIC50 is given for each of the following compounds.
system: HT29; assay: Growth inhibition test (MTT), cytotoxic action on tumour cell lines; type: cell-based, human; conditions: HT29; MTT after day 6; read-out: IC50 values of the cytotoxic action on tumour cell lines, HT29
*1 amine or outer side, *2 acyl side, *3 side chain or, on linkers, in order; H or OH if unused. Where a SMILES comes first, the peptide text is derived from it. [ ]: non-standard residue; d: D form. The star is where a group is joined. X6 = O=C(O)CC(NS(=O)(=O)c1ccc(-c2cccc(NC(=O)Nc3nc4ccccc4[nH]3)c2)cc1)c1cccc(N*)c1; Camptothecin(20R,20-O) = CC[C@]1(O*)C(=O)OCc2c1cc1n(c2=O)Cc2cc3ccccc3nc2-1; X2 = CCCNC(=O)Nc1cccc(S(=O)(=O)Nc2cccc(C(CC(=O)O)NC(=O)Nc3ccc(N*)cc3)c2)c1; X1 = CCCNC(=O)Nc1cccc(S(=O)(=O)Nc2cccc(C(CC(=O)O)N*)c2)c1; NH(1,4-C6H4)NHCS = S=C(Nc1ccc(N[*:1])cc1)[*:2]; CO = O=C([*:1])[*:2]
# reply with the number alone; pIC50 is -log10 of concentration in mol/L

compound	pIC50
CC[C@]1(OC(=O)[C@H](NC(=O)[C@@H](Cc2c[nH]cn2)NC(=O)[C@@H](CC(C)C)NC(=O)CNC(=O)[C@H](CC(C)C)NC(=O)[C@H]2CCCN2C(=O)Nc2cccc(C(CC(=O)O)NS(=O)(=O)c3ccc(-c4cccc(NC(=O)Nc5nc6ccccc6[nH]5)c4)cc3)c2)C(C)C)C(=O)OCc2c1cc1n(c2=O)Cc2cc3ccccc3nc2-1 (stereo partly drawn) [Example 7] ({X6-CO}-[dP]LG[dL][dH][dV]-{Camptothecin(20R,20-O)})	6.82
CCCNC(=O)Nc1cccc(S(=O)(=O)Nc2cccc(C(CC(=O)O)NC(=O)Nc3ccc(NC(=S)N4CCC[C@@H]4C(=O)N[C@@H](CC(C)C)C(=O)NCC(=O)N[C@H](CC(C)C)C(=O)N[C@H](CSC)C(=O)N[C@@H](C(=O)O[C@@]4(CC)C(=O)OCc5c4cc4n(c5=O)Cc5cc6ccccc6nc5-4)C(C)C)cc3)c2)c1 (stereo partly drawn) [Example 13] ({X1-CO}-[NH(1,4-C6H4)NHCS][dP]LG[dL][dC](Me)[dV]-{Camptothecin(20R,20-O)})	7.00
CCCNC(=O)Nc1cccc(S(=O)(=O)Nc2cccc(C(CC(=O)O)NC(=O)Nc3ccc(NC(=O)N4CCC[C@@H]4C(=O)N[C@@H](CC(C)C)C(=O)NCC(=O)N[C@H](CC(C)C)C(=O)N[C@H](Cc4c[nH]c5ccccc45)C(=O)N[C@@H](C(=O)O[C@@]4(CC)C(=O)OCc5c4cc4n(c5=O)Cc5cc6ccccc6nc5-4)C(C)C)cc3)c2)c1 (stereo partly drawn) [Example 15] ({X2-CO}-[dP]LG[dL][dW][dV]-{Camptothecin(20R,20-O)})	6.30
CCCNC(=O)Nc1cccc(S(=O)(=O)Nc2cccc(C(CC(=O)O)NC(=O)Nc3ccc(NC(=S)N4CCC[C@@H]4C(=O)NCC(=O)NCC(=O)N[C@H](CC(C)C)C(=O)N[C@H](CC(N)=O)C(=O)N[C@@H](C(=O)O[C@@]4(CC)C(=O)OCc5c4cc4n(c5=O)Cc5cc6ccccc6nc5-4)C(C)C)cc3)c2)c1 (stereo partly drawn) [Example 23] ({X1-CO}-[NH(1,4-C6H4)NHCS][dP]GG[dL][dN][dV]-{Camptothecin(20R,20-O)})	6.82

Please look at the following compound next.
Request: Item under review: CCCNC(=O)Nc1cccc(S(=O)(=O)Nc2cccc(C(CC(=O)O)NC(=O)Nc3ccc(NC(=S)N4CCC[C@@H]4C(=O)N[C@@H](CC(C)C)C(=O)NCC(=O)N[C@H](CC(C)C)C(=O)N[C@H](CCCCN)C(=O)N[C@H](C(=O)O[C@@]4(CC)C(=O)OCc5c4cc4n(c5=O)Cc5cc6ccccc6nc5-4)C(C)C)cc3)c2)c1 (stereo partly drawn) [Example 20] ({X1-CO}-[NH(1,4-C6H4)NHCS][dP]LG[dL][dK]V-{Camptothecin(20R,20-O)}) . Reported pIC50?
Result: 7.15
